- Test system: S. aureus
- method_notes: MIC, broth microdilution
- Assay type: cell-based, Staphylococcus aureus
- measurement_context: Staphylococcus aureus, S. aureus PU32, i-ermA; read-out: MIC

| compound | endpoint_unit | MIC |
| --- | --- | --- |
| CC[C@H]1OC(=O)[C@H](C)[C@@H](OC(=O)NCCCCCC#Cc2ccc3c(=O)c(C(=O)O)cn(C4CC4)c3c2)[C@H](C)[C@@H](O[C@@H]2O[C@H](C)C[C@H](N(C)C)[C@H]2O)[C@](C)(OC)C[C@@H](C)C(=O)[C@H](C)[C@H]2NC(=O)O[C@@]21C [87c] | µg/mL | 1 |
| CC[C@H]1OC(=O)[C@H](C)[C@@H](OC(=O)NCCCCCC#Cc2ccc3c(=O)c(C(=O)O)cn(C4CC4)c3c2)[C@H](C)[C@@H](O[C@@H]2O[C@H](C)C[C@H](N(C)C)[C@H]2O)[C@](C)(OC)C[C@@H](C)C(=O)[C@H](C)[C@H]2OC(=O)O[C@@]21C [79c] | µg/mL | 4 |
| CC[C@H]1OC(=O)[C@H](C)[C@@H](OC(=O)NCCCNCCC#Cc2ccc3c(=O)c(C(=O)O)cn(C4CC4)c3c2)[C@H](C)[C@@H](O[C@@H]2O[C@H](C)C[C@H](N(C)C)[C@H]2O)[C@](C)(OC)C[C@@H](C)C(=O)[C@H](C)[C@H]2NC(=O)O[C@@]21C [98c] | µg/mL | 4 |
| CC[C@H]1OC(=O)[C@H](C)[C@@H](OC(=O)NCCCCCCC#Cc2ccc3c(=O)c(C(=O)O)cn(C)c3c2)[C@H](C)[C@@H](O[C@@H]2O[C@H](C)C[C@H](N(C)C)[C@H]2O)[C@](C)(OC)C[C@@H](C)C(=O)[C@H](C)[C@H]2NC(=O)O[C@@]21C | µg/mL | 0.25 |
| CC[C@H]1OC(=O)[C@H](C)[C@@H](OC(=O)NCCCCCCC#Cc2ccc3cc(C(=O)O)cnc3c2)[C@H](C)[C@@H](O[C@@H]2O[C@H](C)C[C@H](N(C)C)[C@H]2O)[C@](C)(OC)C[C@@H](C)C(=O)[C@H](C)[C@H]2NC(=O)O[C@@]21C [88j] | µg/mL | 8 |
| CCC1OC(=O)C(C)C(OC(=O)NCCOCCCC#Cc2ccc3c(=O)c(C(=O)O)cn(C4CC4)c3c2)C(C)C(OC2OC(C)CC(N(C)C)C2O)C(C)(OC)CC(C)C(=NOC)C(C)C2OC(=O)OC12C (stereo not drawn) [71c] | µg/mL | 4 |
| CCC1OC(=O)C(C)C(OC(=O)NCCCCCCCc2ccc3c(c2)c(=O)c(C(=O)O)cn3C2CC2)C(C)C(OC2OC(C)CC(N(C)C)C2O)C(C)(OC)CC(C)C(=NOC)C(C)C2OC(=O)OC12C (stereo not drawn) [61a] | µg/mL | 8 |
| CC[C@H]1OC(=O)[C@H](C)[C@@H](OC(=O)NCCCOCCC#Cc2ccc3c(=O)c(C(=O)O)cn(C)c3c2)[C@H](C)[C@@H](O[C@@H]2O[C@H](C)C[C@H](N(C)C)[C@H]2O)[C@](C)(OC)C[C@@H](C)C(=O)[C@H](C)[C@H]2NC(=O)O[C@@]21C | µg/mL | 0.5 |
| CCC1OC(=O)C(C)C(OC(=O)NCCCCCCCc2ccc3c(=O)c(C(=O)O)cn(C4CC4)c3c2)C(C)C(OC2OC(C)CC(N(C)C)C2O)C(C)(OC)CC(C)C(=NOC)C(C)C2OC(=O)OC12C (stereo not drawn) [61c] | µg/mL | 8 |
| CCC1OC(=O)C(C)C(OC(=O)NCCCCCCCc2ccc3c(=O)c(C(N)=O)cn(C4CC4)c3c2)C(C)C(OC2OC(C)CC(N(C)C)C2O)C(C)(OC)CC(C)C(=NOC)C(C)C2OC(=O)OC12C (stereo not drawn) [61d] | µg/mL | 64 |
| CC[C@H]1OC(=O)[C@H](C)[C@@H](OC(=O)NCCCOCCC#Cc2ccc3cc(C(=O)O)cnc3c2)[C@H](C)[C@@H](O[C@@H]2O[C@H](C)C[C@H](N(C)C)[C@H]2O)[C@](C)(OC)C[C@@H](C)C(=O)[C@H](C)[C@H]2NC(=O)O[C@@]21C [95j] | µg/mL | 64 |
| CC[C@H]1OC(=O)[C@H](C)[C@@H](OC(=O)NCCCOCCC#Cc2ccc3c(=O)c(C(=O)O)c[nH]c3c2)[C@H](C)[C@@H](O[C@@H]2O[C@H](C)C[C@H](N(C)C)[C@H]2O)[C@](C)(OC)C[C@@H](C)C(=O)[C@H](C)[C@H]2NC(=O)O[C@@]21C [95i] | µg/mL | 8 |
| CCC1OC(=O)C(C)C(OC(=O)NCCCCCC#Cc2ccc3c(=O)c(C(=O)O)cn(C4CC4)c3c2)C(C)C(OC2OC(C)CC(N(C)C)C2O)C(C)(OC)CC(C)C(=NOC)C(C)C2OC(=O)OC12C (stereo not drawn) [57c] | µg/mL | 4 |
| CC[C@H]1OC(=O)[C@H](C)[C@@H](OC(=O)NCCCCCCC#Cc2ccc3c(=O)c(C(=O)O)cn(C4CC4)c3c2)[C@H](C)[C@@H](O[C@@H]2O[C@H](C)C[C@H](N(C)C)[C@H]2O)[C@](C)(OC)C[C@@H](C)C(=O)[C@H](C)[C@H]2NC(=O)O[C@@]21C [88c] | µg/mL | 2 |
| CCC1OC(=O)C(C)C(OC(=O)NCCCOCCC#Cc2ccc3c(=O)c(C(=O)O)cn(C4CC4)c3c2)C(C)C(OC2OC(C)CC(N(C)C)C2O)C(C)(OC)CC(C)C(=NOC)C(C)C2OC(=O)OC12C (stereo not drawn) [72c] | µg/mL | 2 |
